- Test Target: the molecule itself
- Assay Protocol: native gel or EMSA; differently tagged (short and long) NHR proteins mixed at 4°C overnight, then incubated with 58 nt or 29 nt RNA (6-10 μM RNA, 2-10 μM protein) for 1 hour at 4°C in 25 mM Hepes-KOH, 25 mM NH4Cl, 5 mM MgCl2, 5 mM DTT, pH 8.0; 6% polyacrylamide native gel, SYBR Gold; dimers seen as RNA-protein complexes
Measurement Kind: stoichiometry N
Numbers only.

Solved cases (3 shown):
{"Protein": "thioredoxin tagged nosiheptide resistance methyltransferase (Trx-NHR) (enzyme, Streptomyces actuosus, UniProt P52391 1-274, looked up, nosiheptide resistance methyltransferase (NHR), Streptomyces actuosus; wild type; Homodimer when alone; in the heterodimer with His-NHR one chain of each construct; Named Trx-His-NHR in the methods; also called Trx-His-NHR; NHR(L); source: over expressed from pET-32M-NHR, purified (Ni-NTA, gel filtration); not shown: thioredoxin, N-terminal, kept) MTEPAIITNASDPAVQRIIDVTKHSRASIKTTLIEDTEPLMECIRAGVQFIEVYGSSGTPLDPALLDLCRQREIPVRLIDVSIVNQLFKAERKAKVFGIARVPRPARLADIAERGGDVVVLDGVKIVGNIGAIVRTSLALGAAGIVLVDSDLATIADRRLLRASRGYVFSLPVVLADREEAVSFLRDNDIALMVLDTDGDLGVKDLGDRADRMALVFGSEKGGPSGLFQEASAGTVSIPMLSSTESLNVSVSVGIALHERSARNFAVRRAAAQA", "Measurement Kind": "stoichiometry N", "Endpoint Value": 2}
{"Protein": "Flag-Trx-His-NHR (enzyme, Streptomyces actuosus, UniProt P52391 1-274, looked up, nosiheptide resistance methyltransferase (NHR), Streptomyces actuosus; wild type; Homodimer when alone; in the heterodimer with HA-His-NHR-R135A one chain of each construct; also called Flag-NHR; Flag-Trx-NHR; source: Flag tag added to Trx-His-NHR by PCR; purified (Ni-NTA, gel filtration); not shown: thioredoxin, N-terminal, kept) MTEPAIITNASDPAVQRIIDVTKHSRASIKTTLIEDTEPLMECIRAGVQFIEVYGSSGTPLDPALLDLCRQREIPVRLIDVSIVNQLFKAERKAKVFGIARVPRPARLADIAERGGDVVVLDGVKIVGNIGAIVRTSLALGAAGIVLVDSDLATIADRRLLRASRGYVFSLPVVLADREEAVSFLRDNDIALMVLDTDGDLGVKDLGDRADRMALVFGSEKGGPSGLFQEASAGTVSIPMLSSTESLNVSVSVGIALHERSARNFAVRRAAAQA", "Measurement Kind": "stoichiometry N", "Endpoint Value": 2}
{"Protein": "N-terminal hexahistidine tagged nosiheptide resistance methyltransferase (His-NHR) (enzyme, Streptomyces actuosus, UniProt P52391 1-274, looked up, nosiheptide resistance methyltransferase (NHR), Streptomyces actuosus; wild type; Homodimer when alone; in the heterodimer with Trx-NHR one chain of each construct; also called NHR(S); short, S; source: over expressed from pET-28a-NHR, purified (Ni-NTA, gel filtration); not shown: His6, N-terminal, kept) MTEPAIITNASDPAVQRIIDVTKHSRASIKTTLIEDTEPLMECIRAGVQFIEVYGSSGTPLDPALLDLCRQREIPVRLIDVSIVNQLFKAERKAKVFGIARVPRPARLADIAERGGDVVVLDGVKIVGNIGAIVRTSLALGAAGIVLVDSDLATIADRRLLRASRGYVFSLPVVLADREEAVSFLRDNDIALMVLDTDGDLGVKDLGDRADRMALVFGSEKGGPSGLFQEASAGTVSIPMLSSTESLNVSVSVGIALHERSARNFAVRRAAAQA", "Measurement Kind": "stoichiometry N", "Endpoint Value": 2}

Lab note: measured stoichiometry N of HA-His-NHR-R135A (enzyme, Streptomyces actuosus, UniProt P52391 1-274, looked up, nosiheptide resistance methyltransferase (NHR), Streptomyces actuosus; Homodimer when alone; in the heterodimer with Flag-Trx-His-NHR one chain of each construct; also called HA-NHR-R135A; HA-R135A-NHR; source: site-directed mutagenesis of His-NHR, HA tag added by PCR; purified (Ni-NTA, gel filtration); not shown: His6, N-terminal, kept) MTEPAIITNASDPAVQRIIDVTKHSRASIKTTLIEDTEPLMECIRAGVQFIEVYGSSGTPLDPALLDLCRQREIPVRLIDVSIVNQLFKAERKAKVFGIARVPRPARLADIAERGGDVVVLDGVKIVGNIGAIVATSLALGAAGIVLVDSDLATIADRRLLRASRGYVFSLPVVLADREEAVSFLRDNDIALMVLDTDGDLGVKDLGDRADRMALVFGSEKGGPSGLFQEASAGTVSIPMLSSTESLNVSVSVGIALHERSARNFAVRRAAAQA was 2

All values here come from paper PMC4409310.
